biological target: KRAS-G13D (Homo sapiens, UniProt P01116, G13D); experiment: SOS-catalyzed nucleotide exchange assay (Procedure A, TR-FRET), KRAS-G13D; format: biochemical; conditions: nucleotide exchange, Procedure A; read-out: KRAS G13D GNE IC50
Sequence (P01116 with tags, fused parts or gaps isoform P01116-2 G13D): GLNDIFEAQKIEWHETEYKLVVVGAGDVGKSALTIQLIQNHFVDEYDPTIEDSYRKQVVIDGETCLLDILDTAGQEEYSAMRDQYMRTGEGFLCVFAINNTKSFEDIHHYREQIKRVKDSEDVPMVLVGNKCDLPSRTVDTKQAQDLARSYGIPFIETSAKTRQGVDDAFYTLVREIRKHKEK
measurement-type: pIC50
pIC50 (log units): -log10 of the concentration in mol/L.

Consider the reported pIC50 for these molecules:
# molecule, pIC50
measured = [
    ("[2H]C1([2H])CC[C@]2(COc3nc(N4CCOC[C@@](C)(O)C4)c4c(n3)sc3c(-c5c(C6CC6)c(Cl)cc6[nH]ncc56)nccc34)N1C[C@H](F)C2([2H])[2H]", 7.90),
    ("CN(C)C[C@@]1(COc2nc(N3CCOC[C@@](C)(O)C3)c3c(n2)oc2c(-c4c(C5CC5)c(Cl)cc5[nH]ncc45)nccc23)CC1(F)F", 6.98),
    ("C[C@@]1(O)COCCN(c2nc(OC[C@@]34CCCN3C[C@@]3(CC3(F)F)C4)nc3sc4c(-c5c(C6CC6)c(Cl)cc6[nH]ncc56)nccc4c23)C1", 7.82),
    ("CN1CCC[C@@]2(COc3nc(N4CCOC[C@@](C)(O)C4)c4c(n3)sc3c(-c5c(C6CC6)c(C(F)(F)F)cc6[nH]ncc56)nccc34)CCC[C@@H]12", 7.97),
]

Turning to the following molecule.
I would be grateful if you could share the reported pIC50 for Cc1cc2[nH]ncc2c(-c2nccc3c4c(N5CCC[C@@](C)(O)C5)nc(OC[C@@]56CCCN5C[C@H](F)C6)nc4n(C)c23)c1C(F)(F)F (single isomer, unassigned) .
7.03

---

target: KRAS G12D (amino acids 1-169) (Homo sapiens, UniProt P01116, G12D); assay: SOS-catalyzed nucleotide exchange assay (Procedure B, BODIPY FL GDP displacement), KRAS G12D; settings: read-out: KRAS G12D GNE IC50
Sequence (P01116 with tags, fused parts or gaps isoform P01116-2 G12D): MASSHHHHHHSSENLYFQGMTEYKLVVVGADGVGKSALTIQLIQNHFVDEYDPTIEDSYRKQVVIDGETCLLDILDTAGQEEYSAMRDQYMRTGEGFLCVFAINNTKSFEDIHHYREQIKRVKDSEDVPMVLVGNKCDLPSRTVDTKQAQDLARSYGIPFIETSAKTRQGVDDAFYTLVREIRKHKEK
pIC50: −log10 of the molar value.
Tag: True if measured pIC50 is not below 7, False if it is.

# compound, assigned-label
measured = [
    ("C#CC1CCc2cc3[nH]ncc3c(-c3nccc4c3sc3nc(OC[C@@]56CCCN5C[C@H](F)C6)nc(N5CCOC[C@@](C)(O)C5)c34)c21 (stereo partly drawn) [Ex-166]", "True"),
    ("C=CC1CCc2cc3[nH]ncc3c(-c3nccc4c3sc3nc(OC[C@@]56CCCN5C[C@H](F)C6)nc(N5CCOC[C@@](C)(O)C5)c34)c21 (single isomer, unassigned) [Ex-93]", "True"),
    ("Cc1cc2[nH]ncc2c(-c2nccn3c2c(C)c2nc(OC[C@@]45CCCN4C[C@H](F)C5)nc(N4CCOC[C@@](C)(O)C4)c23)c1C(F)(F)F (single isomer, unassigned) [Ex-301]", "True"),
    ("C[C@@]1(O)COCCN(c2nc(OC[C@@]34CCCN3C[C@H](F)C4)nc3c(I)c4c(-c5c(C6CC6)c(Cl)cc6[nH]ncc56)nccn4c23)C1 [Ex-303]", "False"),
]

Now, please, on to the next compound.
Would you say C#Cc1c(Cl)cc2[nH]ncc2c1-c1nccn2c1c(F)c1nc(OC[C@@]34CCCN3C[C@H](F)C4)nc(N3CCOC[C@@](C)(O)C3)c12 [Ex-304] shows pIC50 at minimum 7?
True

---

target: KRAS-G12D (Homo sapiens, UniProt P01116, G12D); test: SOS-catalyzed nucleotide exchange assay (Procedure A, TR-FRET), KRAS-G12D; assay type: biochemical; conditions: nucleotide exchange, read-out: KRAS G12D GNE IC50
Sequence (P01116 with tags, fused parts or gaps isoform P01116-2 G12D): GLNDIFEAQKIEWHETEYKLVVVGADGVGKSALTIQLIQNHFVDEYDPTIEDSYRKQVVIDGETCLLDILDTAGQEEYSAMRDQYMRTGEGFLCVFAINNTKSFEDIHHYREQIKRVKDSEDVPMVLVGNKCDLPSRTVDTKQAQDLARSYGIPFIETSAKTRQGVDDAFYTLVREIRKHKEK
Lab note: cut-off is 20 nM. Strictly less in IC50 is label 1. Exactly 20 nM or more is label 0.

# compound, assigned-label
measured = [
    ("CN(C)C[C@@]1(COc2nc(N3CCOC[C@@](C)(O)C3)c3c(n2)sc2c(-c4c(C5CC5)c(Cl)cc5[nH]ncc45)nncc23)CC1(F)F [Ex-287]", "label 1"),
    ("COc1cc2c3c(N4CCOC[C@@](C)(O)C4)nc(OC[C@@]45CCCN4C[C@H](F)C5)nc3n(C)c2c(-c2c(C(F)(F)F)c(C)cc3[nH]ncc23)n1 [Ex-26]", "label 0"),
    ("Cc1cc2[nH]ncc2c(-c2nccc3c2sc2nc(OC[C@@]45CCCN4C[C@H](F)C5)nc(N4CCCC5(CNC(=O)C5)C4)c23)c1C(F)(F)F (stereo partly drawn) [Ex-193]", "label 0"),
]

IC50 under 20 nM? Item: [2H]C([2H])([2H])N(C[C@@]1(COc2nc(N3CCOC[C@@](C)(O)C3)c3c(n2)sc2c(-c4c(C5(F)CC5)c(Cl)cc5[nH]ncc45)nccc23)CC1(F)F)C([2H])([2H])[2H] [Ex-231]
label 1

IC50 strictly < 20 nM for this compound? CN1CCC[C@@]2(COc3nc(N4CCOC[C@@](C)(O)C4)c4c(n3)sc3c(-c5c(C6CC6)c(C(F)(F)F)cc6[nH]ncc56)nccc34)CCC[C@@H]12 [Ex-205]
label 1

Consider the compound C=C(C)c1c(C)cc2[nH]ncc2c1-c1nccc2c1sc1nc(OC[C@@]34CCCN3C[C@H](F)C4)nc(N3CCOC[C@@](C)(O)C3)c12 [Ex-136] . Is its IC50 strictly less than 20 nM?
label 0

---

Measured IC50 by item
target: KRAS-G12V (Homo sapiens, UniProt P01116, G12V); assay: SOS-catalyzed nucleotide exchange assay (Procedure A, TR-FRET), KRAS-G12V; format: biochemical; conditions: nucleotide exchange, read-out: KRAS G12V GNE IC50
Sequence (P01116 with tags, fused parts or gaps isoform P01116-2 G12V): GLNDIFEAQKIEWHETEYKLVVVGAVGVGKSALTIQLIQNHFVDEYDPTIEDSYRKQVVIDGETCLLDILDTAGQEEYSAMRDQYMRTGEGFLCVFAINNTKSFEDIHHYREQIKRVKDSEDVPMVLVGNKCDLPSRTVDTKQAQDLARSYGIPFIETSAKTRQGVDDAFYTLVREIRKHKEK
Reply numerically in nM, unit not repeated.

Check out these entries, answers already filled in.
# compound, assayed-system, reading-unit, IC50
rows = [
    ("Cn1c2nc(OC[C@@]34CCCN3C[C@H](F)C4)nc(N3CCOC[C@@](C)(O)C3)c2c2ccnc(-c3c(C(F)F)c(Cl)cc4[nH]nc(C#N)c34)c21 (single isomer, unassigned) [Ex-12]", "KRAS-G12V (Homo sapiens, UniProt P01116, G12V)", "nM", 2960),
    ("Cc1cc2[nH]ncc2c(-c2nccc3c2sc2nc(OC[C@]4(CN(C)C)CC4(F)F)nc(N4CCOC[C@@](C)(O)C4)c23)c1C(F)(F)F [Ex-130]", "KRAS-G12V (Homo sapiens, UniProt P01116, G12V)", "nM", 77.2),
    ("Cc1cc2[nH]ncc2c(-c2nccc3c2sc2nc(OC[C@@]45CCCN4C[C@H](F)C5)nc(N4CCC[C@]5(CCO5)C4)c23)c1C(F)(F)F [Ex-200]", "KRAS-G12V (Homo sapiens, UniProt P01116, G12V)", "nM", 92.9),
    ("C[C@@]1(O)COCCN(c2nc(OC[C@@]34CCCN3C[C@H](F)C4)nc3sc4c(-c5c(C6CC6)c(C#N)cc6[nH]ncc56)nccc4c23)C1 [Ex-51]", "KRAS-G12V (Homo sapiens, UniProt P01116, G12V)", "nM", 140),
    ("Cc1cc2[nH]ncc2c(-c2nccc3c2sc2nc(OC[C@@]45CCCN4C[C@H](F)C5)nc(N4CCC[C@@](C)(O)C4)c23)c1C(F)(F)F [Ex-128]", "KRAS-G12V (Homo sapiens, UniProt P01116, G12V)", "nM", 143),
]

Now let's try a different one.
Entry under review: C[C@@]1(O)COCCN(c2nc(OC[C@@]34CCCN3C[C@H](F)C4)nc3sc4c(-c5c(C67CC(C6)C7)ccc6[nH]ncc56)nccc4c23)C1 [Ex-42] . Reported IC50?
144

---

target: KRAS-G12V (Homo sapiens, UniProt P01116, G12V); assay: SOS-catalyzed nucleotide exchange assay (Procedure A, TR-FRET), KRAS-G12V; format: biochemical; settings: nucleotide exchange, read-out: KRAS G12V GNE IC50
# key: entry, value: IC50
Quick reminder: number only, in nM, skip the unit.

Worked examples, 2 molecules total:
# molecule, reading-unit, IC50
records = [
    ("CN(C)C[C@@]1(COc2nc(N3CCOC[C@@](C)(O)C3)c3c(n2)oc2c(-c4c(C5CC5)c(Cl)cc5[nH]ncc45)nccc23)CC1(F)F", "nM", 125),
    ("C[C@H]1CCN1C[C@@]1(COc2nc(N3CCOC[C@@](C)(O)C3)c3c(n2)sc2c(-c4c(C5(F)CC5)c(Cl)cc5[nH]ncc45)nccc23)CC1(F)F", "nM", 15.9),
]

Given the molecule Cc1n[nH]c2cc(Cl)c(C(F)F)c(-c3nccc4c5c(N6CCOC[C@@](C)(O)C6)nc(OC[C@@]67CCCN6C[C@H](F)C7)nc5n(C)c34)c12 (single isomer, unassigned) , what is its reported IC50?
1660

Hey, just so you know, these numbers are from patent US20260176289A1.
